Assay: Dog PK
Assay type: in vivo
Settings: plasma, iv, 0.1 mg/kg
observed property: half-life (h)
Quick reminder: number only, in h, skip the unit.

Qu. Form field: reported half-life of C[C@]1(O)CCCN(c2nc(Nc3ccc(S(=O)(=O)N[C@@H]4CCN(CC5CCN(c6ccc(C7CCC(=O)NC7=O)cc6F)CC5)C[C@@H]4F)cc3F)ncc2C(F)(F)F)C1 (stereo partly shown)
Ans. 14.4

---

Test: Dog PK
Assay type: in vivo
Settings: plasma, iv, 0.1 mg/kg
observed property: Vd
Param answer (str): number followed by unit.

Qu. Form field: reported Vd of C[C@]1(O)CCCN(c2nc(Nc3ccc(S(=O)(=O)N[C@@H]4CCN(CC5CCN(c6ccc(C7CCC(=O)NC7=O)cc6F)CC5)C[C@@H]4F)cc3F)ncc2C(F)(F)F)C1 (stereo partly shown)
Ans. 4.2 L/kg

---

Biological target: UniProt:P08684
Sequence (P08684 whole entry): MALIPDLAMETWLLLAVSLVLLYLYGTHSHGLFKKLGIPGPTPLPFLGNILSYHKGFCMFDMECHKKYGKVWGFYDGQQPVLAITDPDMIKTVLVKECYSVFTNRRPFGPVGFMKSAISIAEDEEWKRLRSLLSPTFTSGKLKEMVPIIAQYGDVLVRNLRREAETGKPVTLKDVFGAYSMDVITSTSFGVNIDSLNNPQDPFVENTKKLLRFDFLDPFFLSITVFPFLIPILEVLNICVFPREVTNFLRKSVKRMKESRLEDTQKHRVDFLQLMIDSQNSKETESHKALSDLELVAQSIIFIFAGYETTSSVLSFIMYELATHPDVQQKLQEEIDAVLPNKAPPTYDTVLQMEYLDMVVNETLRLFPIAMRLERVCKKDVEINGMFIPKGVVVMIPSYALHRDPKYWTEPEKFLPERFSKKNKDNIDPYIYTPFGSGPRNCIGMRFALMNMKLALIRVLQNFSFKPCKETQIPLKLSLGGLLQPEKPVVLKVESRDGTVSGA
Assay: Cyp3A4 TDI
Type: in vitro ADME
Conditions: CYP3A4 TDI (+NADPH), 30 min pre-incubation with NADPH
pIC50: −log10 of the molar value.
Could you please report measured pIC50 for the items listed next?

Qu. Form field: reported pIC50 of C[C@]1(O)CCCN(c2nc(Nc3ccc(S(=O)(=O)N[C@H]4CC[C@H](CN5CCN(c6ccc(C7CCC(=O)NC7=O)cc6F)CC5)CC4)cc3F)ncc2C(F)(F)F)C1 (some centres unmarked)
Ans. < 5.00

Qu. Form field: reported pIC50 of C[C@]1(O)CCCN(c2nc(Nc3ccc(S(=O)(=O)N[C@H]4CC[C@H](CN5CCN(c6ccc(C7CCC(=O)NC7=O)cc6F)CC5)CC4)cc3Cl)ncc2C(F)(F)F)C1 (some centres unmarked)
Ans. < 5.00

---

Could you please report measured solubility at 2 h for the items listed next?
Test: FaSSIF solubility
Format: physicochemical
Conditions: kinetic from dmso stock
Quick reminder: number only, in µM, skip the unit.

Qu. Form field: reported solubility at 2 h of Cc1cc(S(=O)(=O)NCCO[C@H]2CC[C@H](CN3CCC(c4ccc5c(c4)n(C)c(=O)n5C4CCC(=O)NC4=O)CC3)CC2)ccc1Nc1ncc(C(F)(F)F)c([C@H]2CC[C@@](C)(O)CC2)n1 (stereo partly drawn) [Compound 8]
Ans. 153

Qu. Form field: reported solubility at 2 h of Cc1cc(S(=O)(=O)NCCO[C@H]2CC[C@H](CN3CCC(c4ccc5c(c4F)n(C)c(=O)n5C4CCC(=O)NC4=O)CC3)CC2)ccc1Nc1ncc(C(F)(F)F)c([C@H]2CC[C@@](C)(O)CC2)n1 (stereo partly drawn) [Compound 9]
Ans. 173

Qu. Form field: reported solubility at 2 h of [2H][C@@](C)(COC1CCC(CN2CCN(c3ccc4c(c3F)n(C)c(=O)n4C3CCC(=O)NC3=O)CC2)CC1)NS(=O)(=O)c1ccc(Nc2ncc(C(F)(F)F)c(N3CCC[C@](C)(O)C3)n2)c(C)c1 (stereo partly drawn) [Compound 13]
Ans. 62

---

Assay: Monkey PK
Type: in vivo
Settings: plasma, po, 1 mg/kg
observed property: Cmax
Param answer (str): number followed by unit.

Qu. Form field: reported Cmax of C[C@]1(O)CCCN(c2nc(Nc3ccc(S(=O)(=O)N[C@@H]4CCN(CC5CCN(c6ccc(C7CCC(=O)NC7=O)cc6F)CC5)C[C@@H]4F)cc3F)ncc2C(F)(F)F)C1 (stereo partly shown) [Compound 37]
Ans. 14 nM

---

Test: Monkey PK
Type: in vivo
Conditions: plasma, iv, 0.07 mg/kg
observed property: clearance (mL/min/kg)
Quick reminder: number only, in mL/min/kg, skip the unit.

Qu. Form field: reported clearance of C[C@]1(O)CCCN(c2nc(Nc3ccc(S(=O)(=O)N[C@@H]4CCN(CC5CCN(c6ccc(C7CCC(=O)NC7=O)cc6F)CC5)C[C@@H]4F)cc3F)ncc2C(F)(F)F)C1 (stereo partly shown) [Compound 37]
Ans. 9.1

---

Experiment: Plasma protein binding
Assay type: in vitro ADME
Details: mouse
observed property: fraction unbound at 30 min, 1 µM
Number only, please.

Qu. Form field: reported fraction unbound at 30 min, 1 µM of C[C@]1(O)CCCN(c2nc(Nc3ccc(S(=O)(=O)N[C@@H]4CCN(CC5CCN(c6ccc(C7CCC(=O)NC7=O)cc6F)CC5)C[C@@H]4F)cc3F)ncc2C(F)(F)F)C1 (stereo partly shown)
Ans. 0.0198

---

Could you please report measured efflux ratio at 120 min, 1 μM for the items listed next?
Target: MDR1 (Homo sapiens, UniProt P08183)
Sequence (P08183 whole entry, species assumed): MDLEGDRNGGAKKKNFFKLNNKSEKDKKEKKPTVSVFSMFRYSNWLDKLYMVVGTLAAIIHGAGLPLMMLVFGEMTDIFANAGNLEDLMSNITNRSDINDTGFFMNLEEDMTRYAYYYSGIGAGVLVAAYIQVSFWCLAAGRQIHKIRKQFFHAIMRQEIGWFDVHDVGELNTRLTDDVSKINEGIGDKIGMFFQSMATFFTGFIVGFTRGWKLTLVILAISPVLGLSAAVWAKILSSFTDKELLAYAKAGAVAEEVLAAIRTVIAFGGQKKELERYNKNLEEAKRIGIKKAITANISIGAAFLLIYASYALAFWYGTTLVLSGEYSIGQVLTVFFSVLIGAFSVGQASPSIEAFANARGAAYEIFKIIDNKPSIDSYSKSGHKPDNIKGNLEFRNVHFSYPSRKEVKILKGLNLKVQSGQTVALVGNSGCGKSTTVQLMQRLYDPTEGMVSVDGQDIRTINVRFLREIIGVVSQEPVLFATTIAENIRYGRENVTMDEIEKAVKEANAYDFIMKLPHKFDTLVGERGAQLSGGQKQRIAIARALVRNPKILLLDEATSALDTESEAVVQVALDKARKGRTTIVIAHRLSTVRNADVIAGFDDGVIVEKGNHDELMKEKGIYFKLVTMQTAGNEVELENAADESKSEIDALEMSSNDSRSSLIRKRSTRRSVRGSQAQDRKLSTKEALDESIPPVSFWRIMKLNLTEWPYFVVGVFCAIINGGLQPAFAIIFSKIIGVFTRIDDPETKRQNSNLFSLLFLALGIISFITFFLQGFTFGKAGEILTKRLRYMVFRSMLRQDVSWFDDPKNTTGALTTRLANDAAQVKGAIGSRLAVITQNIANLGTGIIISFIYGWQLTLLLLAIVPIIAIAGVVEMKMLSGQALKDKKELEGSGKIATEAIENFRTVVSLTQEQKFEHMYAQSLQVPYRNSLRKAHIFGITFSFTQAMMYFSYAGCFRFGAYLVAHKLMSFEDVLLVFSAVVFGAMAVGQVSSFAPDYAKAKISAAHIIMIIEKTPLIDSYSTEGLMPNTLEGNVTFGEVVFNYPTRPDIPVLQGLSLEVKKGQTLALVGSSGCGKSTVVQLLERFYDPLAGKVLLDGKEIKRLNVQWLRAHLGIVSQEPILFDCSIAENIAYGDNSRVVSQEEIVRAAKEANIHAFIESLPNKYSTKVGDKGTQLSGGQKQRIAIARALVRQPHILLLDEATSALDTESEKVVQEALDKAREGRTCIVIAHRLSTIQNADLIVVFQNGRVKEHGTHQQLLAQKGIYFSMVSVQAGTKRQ
Test: MDCK-MDR1 efflux ratio
Format: in vitro ADME
Details: dog, MDCK-MDR1, pH 7.4

Qu. Form field: reported efflux ratio at 120 min, 1 μM of [2H][C@@](C)(COC1CCC(CN2CCN(c3ccc4c(c3F)n(C)c(=O)n4C3CCC(=O)NC3=O)CC2)CC1)NS(=O)(=O)c1ccc(Nc2ncc(C(F)(F)F)c(N3CCC[C@](C)(O)C3)n2)c(C)c1 (stereo partly drawn)
Ans. 91

Qu. Form field: reported efflux ratio at 120 min, 1 μM of Cc1cc(S(=O)(=O)NCCO[C@H]2CC[C@H](CN3CCC(c4ccc5c(c4)n(C)c(=O)n5C4CCC(=O)NC4=O)CC3)CC2)ccc1Nc1ncc(C(F)(F)F)c([C@H]2CC[C@@](C)(O)CC2)n1 (stereo partly drawn)
Ans. > 30

Qu. Form field: reported efflux ratio at 120 min, 1 μM of Cc1cc(S(=O)(=O)NCCO[C@H]2CC[C@H](CN3CCC(c4ccc5c(c4F)n(C)c(=O)n5C4CCC(=O)NC4=O)CC3)CC2)ccc1Nc1ncc(C(F)(F)F)c([C@H]2CC[C@@](C)(O)CC2)n1 (stereo partly drawn)
Ans. > 54

---

Could you please report measured clearance for the items listed next?
Test: Rat PK
Assay type: in vivo
Details: in vivo, iv, 2 mg/kg
Quick reminder: number only, in mL/min/kg, skip the unit.

Qu. Form field: reported clearance of Cc1cc(S(=O)(=O)NCCO[C@H]2CC[C@H](CN3CCC(c4ccc5c(c4F)n(C)c(=O)n5C4CCC(=O)NC4=O)CC3)CC2)ccc1Nc1ncc(C(F)(F)F)c([C@H]2CC[C@@](C)(O)CC2)n1 (some centres unmarked)
Ans. 45

Qu. Form field: reported clearance of Cc1cc(S(=O)(=O)NCCO[C@H]2CC[C@H](CN3CCC(c4ccc5c(c4)n(C)c(=O)n5C4CCC(=O)NC4=O)CC3)CC2)ccc1Nc1ncc(C(F)(F)F)c([C@H]2CC[C@@](C)(O)CC2)n1 (some centres unmarked)
Ans. 59

---

Experiment: Monkey PK
Format: in vivo
Settings: plasma, iv, 0.07 mg/kg
observed property: half-life (h)
Quick reminder: number only, in h, skip the unit.

Qu. Form field: reported half-life of C[C@]1(O)CCCN(c2nc(Nc3ccc(S(=O)(=O)N[C@@H]4CCN(CC5CCN(c6ccc(C7CCC(=O)NC7=O)cc6F)CC5)C[C@@H]4F)cc3F)ncc2C(F)(F)F)C1 (stereo partly shown) [Compound 37]
Ans. 8.6

---

Test: Rat PK
Assay type: in vivo
Conditions: in vivo, iv, 2 mg/kg
observed property: Vd (L/kg)
Quick reminder: number only, in L/kg, skip the unit.

Qu. Form field: reported Vd of Cc1cc(S(=O)(=O)NCCO[C@H]2CC[C@H](CN3CCC(c4ccc5c(c4)n(C)c(=O)n5C4CCC(=O)NC4=O)CC3)CC2)ccc1Nc1ncc(C(F)(F)F)c([C@H]2CC[C@@](C)(O)CC2)n1 (some centres unmarked) [Compound 8]
Ans. 15

Qu. Form field: reported Vd of Cc1cc(S(=O)(=O)NCCO[C@H]2CC[C@H](CN3CCC(c4ccc5c(c4F)n(C)c(=O)n5C4CCC(=O)NC4=O)CC3)CC2)ccc1Nc1ncc(C(F)(F)F)c([C@H]2CC[C@@](C)(O)CC2)n1 (some centres unmarked) [Compound 9]
Ans. 11

---

Molecular target: CDK2/CRBN (Homo sapiens, UniProt P24941+Q96SW2)
Sequence (Q16531 whole entry): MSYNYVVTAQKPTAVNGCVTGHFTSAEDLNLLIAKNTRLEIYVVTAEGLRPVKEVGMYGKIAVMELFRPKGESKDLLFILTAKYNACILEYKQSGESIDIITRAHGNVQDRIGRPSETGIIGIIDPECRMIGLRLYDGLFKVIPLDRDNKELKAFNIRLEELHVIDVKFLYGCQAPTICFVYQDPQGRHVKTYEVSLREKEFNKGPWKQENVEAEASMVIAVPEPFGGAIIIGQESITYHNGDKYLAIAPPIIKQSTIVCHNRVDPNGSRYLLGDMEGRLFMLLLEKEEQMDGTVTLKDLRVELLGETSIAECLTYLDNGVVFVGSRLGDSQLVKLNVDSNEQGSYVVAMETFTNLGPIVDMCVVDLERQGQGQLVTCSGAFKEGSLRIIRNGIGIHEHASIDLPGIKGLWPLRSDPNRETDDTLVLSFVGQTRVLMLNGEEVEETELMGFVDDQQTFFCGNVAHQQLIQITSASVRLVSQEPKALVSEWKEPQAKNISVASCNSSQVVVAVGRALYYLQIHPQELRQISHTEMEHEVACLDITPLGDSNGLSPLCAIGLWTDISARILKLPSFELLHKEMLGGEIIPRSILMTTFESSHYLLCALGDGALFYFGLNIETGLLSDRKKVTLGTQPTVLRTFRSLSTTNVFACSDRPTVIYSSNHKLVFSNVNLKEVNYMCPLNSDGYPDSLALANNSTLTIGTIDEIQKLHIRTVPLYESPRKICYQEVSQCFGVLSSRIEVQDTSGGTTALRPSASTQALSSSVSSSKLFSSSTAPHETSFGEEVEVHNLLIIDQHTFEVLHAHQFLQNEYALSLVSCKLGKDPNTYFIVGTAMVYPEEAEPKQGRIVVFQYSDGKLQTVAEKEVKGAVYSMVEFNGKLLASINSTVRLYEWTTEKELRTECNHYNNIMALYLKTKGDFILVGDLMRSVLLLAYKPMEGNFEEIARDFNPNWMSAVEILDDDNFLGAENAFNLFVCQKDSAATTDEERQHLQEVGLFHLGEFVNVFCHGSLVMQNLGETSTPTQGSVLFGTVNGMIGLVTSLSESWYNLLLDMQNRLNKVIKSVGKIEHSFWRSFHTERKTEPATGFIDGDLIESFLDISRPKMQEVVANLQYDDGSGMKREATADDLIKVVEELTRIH
Sequence (Q96SW2 40-442): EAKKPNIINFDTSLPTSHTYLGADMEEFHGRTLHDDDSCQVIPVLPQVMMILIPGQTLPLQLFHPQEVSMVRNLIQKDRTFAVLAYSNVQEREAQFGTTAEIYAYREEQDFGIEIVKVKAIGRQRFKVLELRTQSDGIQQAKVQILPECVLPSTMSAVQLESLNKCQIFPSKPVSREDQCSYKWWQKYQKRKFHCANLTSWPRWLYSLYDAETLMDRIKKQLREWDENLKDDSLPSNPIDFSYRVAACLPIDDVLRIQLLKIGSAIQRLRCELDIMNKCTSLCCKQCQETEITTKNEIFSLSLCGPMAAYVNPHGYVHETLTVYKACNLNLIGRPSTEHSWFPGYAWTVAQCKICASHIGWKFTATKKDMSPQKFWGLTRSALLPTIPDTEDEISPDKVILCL
Test: AlphaLisa ternary complex formation assay
Assay type: binding
Conditions: compound 28 used as 100% control
observed property: CDK2/CRBN/degrader ternary complex normalized AUC
Number only, please.

Qu. Form field: reported CDK2/CRBN/degrader ternary complex normalized AUC of Cc1cc(S(=O)(=O)N[C@H]2CC[C@H](CN3CCN(c4cccc(NC5CCC(=O)NC5=O)c4)CC3)CC2)ccc1Nc1ncc(C(F)(F)F)c(N2CCC[C@](C)(O)C2)n1 (stereo partly drawn) [Compound 28]
Ans. 100

Qu. Form field: reported CDK2/CRBN/degrader ternary complex normalized AUC of Cc1cc(S(=O)(=O)N[C@H]2CC[C@H](N3CCN(CC4CCN(c5cccc6c5n(C)c(=O)n6C5CCC(=O)NC5=O)CC4)CC3)CC2)ccc1Nc1ncc(C(F)(F)F)c(N2CCC[C@](C)(O)C2)n1 (stereo partly drawn) [Compound 14]
Ans. 10

Qu. Form field: reported CDK2/CRBN/degrader ternary complex normalized AUC of Cc1cc(S(=O)(=O)NC2CCC(CN3CCN(c4cccc(C5CCC(=O)NC5=O)c4)CC3)CC2)ccc1Nc1ncc(C(F)(F)F)c(N2CCC[C@](C)(O)C2)n1 (stereo partly drawn) [Compound 26]
Ans. 0

Qu. Form field: reported CDK2/CRBN/degrader ternary complex normalized AUC of Cc1cc(S(=O)(=O)N[C@H]2CC[C@H](CN3CCN(c4ccc(C5CCC(=O)NC5=O)c(Cl)c4)CC3)CC2)ccc1Nc1ncc(C(F)(F)F)c(N2CCC[C@](C)(O)C2)n1 (stereo partly drawn) [Compound 24]
Ans. 92

Qu. Form field: reported CDK2/CRBN/degrader ternary complex normalized AUC of Cc1cc(S(=O)(=O)NC2CC(N3CC[C@@H](OC4CN(c5cccc6c5n(C)c(=O)n6C5CCC(=O)NC5=O)C4)[C@H](F)C3)C2)ccc1Nc1ncc(C(F)(F)F)c(N2CCC[C@](C)(O)C2)n1 (stereo partly drawn) [Compound 20]
Ans. 7.9

Qu. Form field: reported CDK2/CRBN/degrader ternary complex normalized AUC of Cc1cc(S(=O)(=O)NC2CC(N3CCN(CC4CCN(c5cccc6c5n(C)c(=O)n6C5CCC(=O)NC5=O)CC4)CC3)C2)ccc1Nc1ncc(C(F)(F)F)c(N2CCC[C@](C)(O)C2)n1 (stereo partly drawn) [Compound 15]
Ans. 9.5

Qu. Form field: reported CDK2/CRBN/degrader ternary complex normalized AUC of Cc1cc(S(=O)(=O)N[C@H]2C[C@H](CN3CC(c4ccc(C5CCC(=O)NC5=O)c(Cl)c4)C3)C2)ccc1Nc1ncc(C(F)(F)F)c(N2CCC[C@](C)(O)C2)n1 (stereo partly drawn) [Compound 22]
Ans. 0

Qu. Form field: reported CDK2/CRBN/degrader ternary complex normalized AUC of Cc1cc(S(=O)(=O)N[C@H]2C[C@H](CN3CCN(c4ccc(C5CCC(=O)NC5=O)c(Cl)c4)CC3)C2)ccc1Nc1ncc(C(F)(F)F)c(N2CCC[C@](C)(O)C2)n1 (stereo partly drawn) [Compound 23]
Ans. 4.8

Qu. Form field: reported CDK2/CRBN/degrader ternary complex normalized AUC of Cc1cc(S(=O)(=O)N[C@]2(C)C[C@@H](N3CCN(CC4CCN(c5ccc6c(c5F)n(C)c(=O)n6C5CCC(=O)NC5=O)CC4)CC3)C2)ccc1Nc1ncc(C(F)(F)F)c(N2CCC[C@](C)(O)C2)n1 (stereo partly drawn) [Compound 17]
Ans. 13

Qu. Form field: reported CDK2/CRBN/degrader ternary complex normalized AUC of Cc1cc(S(=O)(=O)NC2CC(N3CCN(CC4CCN(c5cccc6c5n(C)c(=O)n6C5CCC(=O)NC5=O)CC4)C4(CC4)C3)C2)ccc1Nc1ncc(C(F)(F)F)c(N2CCC[C@](C)(O)C2)n1 (stereo partly drawn) [Compound 19]
Ans. 27

Qu. Form field: reported CDK2/CRBN/degrader ternary complex normalized AUC of Cc1cc(S(=O)(=O)N[C@H]2CC[C@H](CN3CCN(c4ccc(NC5CCC(=O)NC5=O)cc4F)CC3)CC2)ccc1Nc1ncc(C(F)(F)F)c(N2CCC[C@](C)(O)C2)n1 (stereo partly drawn) [Compound 27]
Ans. 35

Qu. Form field: reported CDK2/CRBN/degrader ternary complex normalized AUC of Cc1cc(S(=O)(=O)NC2CC(N3CCN(CC4CCN(c5ccc(NC6CCC(=O)NC6=O)cc5C)CC4)CC3)C2)ccc1Nc1ncc(C(F)(F)F)c(N2CCC[C@](C)(O)C2)n1 (stereo partly drawn) [Compound 21]
Ans. 4.0

The measurements presented in this section are drawn from paper PMC12434667.
